These data points were gathered from patent US20110183978A1.

# Test system: Septoria tritici
# MEASUREMENT_NOTES: Example R: in vivo test on Septoria tritici (leaf blotch in wheat/protective)
# CONDITION_SUMMARY: Zymoseptoria tritici, 504 h, wheat, protective, 1000 ppm active substance, assessed 21 days after inoculation, read-out: % Wirkungsgrad (activity level)
Consider the following molecules; for each one, report its pest or weed control at 1000 ppm.
Give bare numbers, in %.

Solved cases below.
CCC(C)n1cc(-c2ccnc(NC(=O)CC3CC3)c2)c(-c2ccc(F)cc2)n1 (stereo not drawn) [Compound 159] : 100
CC(C)n1cc(-c2ccnc(NC(=O)C3CC3)c2)c(-c2ccc(F)cc2)n1 [Compound 86] : 100
CCC(=O)Nc1cc(-c2cn(CC3CC3)nc2-c2ccc(F)cc2)ccn1 [Compound 214] : 100

Go through the list and state pest or weed control at 1000 ppm for each entry.
1. CC(C)n1cc(-c2ccncc2)c(-c2ccc(F)cc2)n1 [Compound 89]
2. O=C(Nc1cc(-c2cn(CC3CC3)nc2-c2ccc(F)cc2)ccn1)C1CC1 [Compound 224]

1: 100; 2: 100

Go through the list and state pest or weed control at 1000 ppm for each entry.
1. CCC(=O)Nc1cc(-c2cn(C(C)C)nc2-c2ccc(F)cc2)ccn1 [Compound 85]
2. CC(C)Cn1cc(-c2ccnc(NC(=O)C(C)C)c2)c(-c2ccc(F)cc2)n1 [Compound 87]
3. CCC(=O)Nc1cc(-c2cn(CC)nc2-c2ccc(F)cc2)ccn1 [Compound 198]

1. 100
2. 100
3. 100

Go through the list and state pest or weed control at 1000 ppm for each entry.
1. CCC(=O)Nc1cc(-c2cn(C(C)CC)nc2-c2ccc(F)cc2)ccn1 (stereo not drawn) [Compound 164]
2. CC(C)C(=O)Nc1cc(-c2cn(C(C)C)nc2-c2ccc(F)cc2)ccn1 [Compound 84]

1. 100
2. 100
